Values from patent US20160002318A1

- systemTested: HA of influenza B virus B/Harbin/7/1994 (live virus) (influenza B virus B/Harbin/7/1994)
- assayComment: cell-based or functional assay
Some binders, each annotated with its measured VNA titers.

# binder, unitOfMeasurement, VNA titers
data = [
    ("CR8034 (antibody, V domains shown) VH: EVQLVETGGGLVQPGRSLRLSCAASGFTFDEYIMHWVRQAPGKGPEWVAGINWKGNFMGYADSVQGRFTISRDNAKNSLYLQMNSLRADDTALYYCAKDRLESSAMDILEGGTFDIWGQGTMVTVSS VL: DIQMTQSPSSLSASVGDRVTITCRASQGIRNDLGWYQQKPGKAPKRLIYAASSLQSGVPSRFSGSGSGTDFTLTISSLQPEDFATYYCQQANTYPLTFGGGTKLEIK", "µg/mL", 0.29),
    ("CR8033 (antibody, V domains shown) VH: EVQLVETGGGLVQPGRSLRLSCAASGFSFDEYTMHWVRQAPGKGLEWVAGINWKGNFMGYADSVQGRFTISRDNGKNSLYLQMNSLRAEDTALYYCAKDRLESSAMDILEGGTFDIWGQGTMVT VL: EIVLTQSPGTLSLSPGERATLSCRASQSVSSSYLAWYQQKPGQAPRLLIYGASTRATGIPARFSGSGSGTDFTLTISRLEPEDLAVYYCQQYGSSPWTFGQGTKVEIK", "µg/mL", 0.03),
    ("CR10023 (antibody, V domains shown) VH: EVQLVETGGGLVQPGRSLRLSCAASGFTFDDYAMHWVRQAPGKGLEWVSGINWVSTTMGYADSVKGRFTISRDNAKNSLYLQMNSLRAEDTALYYCAKDRLESAAIDILEGGTFDIRGQGTMVTVSS VL: QSALTQPPSASGSPGQSVTISCTGTSSDVGGYNYVSWYQQHPGKAPKLMIYDVSKRPSGVPDRFSGSKSGNTASLTISGLQAEDEAEYYCSSYASGSTYVFGTGTKVTVL", "µg/mL", 0.26),
    ("CR11039 (antibody, V domains shown) VH: EVQLVQSGAEVKKPGESVKISCKTSGYAFTGYGISWVRQAPGQGLEWMGWINTYKFNTNYAQNLQGRVTMTIDTSTSAAYMELRSLRYEDTAVYFCARDWAGPFGNAFDVWGQGTMVTVSS VL: IQMTQSPSSLSASIGDRVAITCQASQDISDYLNWYQQQPGKAPKLLLYGASNLETGVPSRFSGSGSGTDFTFTISSLQPEDIATYYCQQYGNLPPTFGGGTKLEIK", "µg/mL", 0.02),
    ("CR8035 (antibody, V domains shown) VH: EVQLVESGGGLVQPGRSLRLSCAASGFTFDEYIMHWVRQAPGKGPEWVAGINWKGNFMGYADSVQGRFTISRDNAKNSLYLQMNSLRADDTALYYCAKDRLESSAMDILEGGTFDIWGQGTMVTVSS VL: SSELTQDPAVSVALGQTVRITCQGDSLRSYYASWYQQKPGQAPVLVIYGKNNRPSGIPDRFSGSSSRNTASLTITGAQAEDEADYYCDSRDSSGTHYVFGGGTKVTVL", "µg/mL", 0.66),
    ("CR11036 (antibody, V domains shown) VH: EVQLVQSGAEVKKPGASVTVSCKASGYAFTSYYLHWVRQAPGQGLEWMGIMNLHGGSTTYAQKFQGRVTMTRDTSTRTVYMELSGLRSEDSAVYYCARESPDSSGYPGYYGMDVWGQGTTVTVSS VL: EIVLTQSPGTLSLSPGERATLSCRASQSVSSDFFAWYQQKRGQTPTLLIYGTSTRATGIPDRFSGSGSGTDFTLSVARLEPEDFAVYYCQQYGSSTWTFGQGTKVEIK", "µg/mL", 0.02),
]
